Hey, just so you know, these numbers are from patent US20250248979A1.

Observable: Plasma Stability t1/2 (min) human
One number for each entry, in min.

COc1ccc(-c2ccc3c(C(=O)NC(COC(=O)CCl)C(F)(F)F)nn(C)c3c2)cc1Cl (stereo not shown): 16.6

Provide Plasma Stability t1/2 (min) human for all items below, preserving their order.
1. COc1ccc(CNS(=O)(=O)c2ccc(-c3ccc4c(C(=O)NC(C)(C)COC(=O)CCl)nn(C)c4c3)cc2)cc1
2. Cn1nc(C(=O)NC(C)(C)COC(=O)CCl)c2ccc(-c3ccc(OC(F)(F)F)c(Cl)c3)cc21
3. COc1ccc(-c2ccc3c(C(=O)NC(C)(C)COC(=O)CCl)nn(C)c3c2)cc1Cl

RESULT:
1: 12.5; 2: 47.9; 3: 7.5

----------
- Target Under Test: GPX4^U46C (Homo sapiens, UniProt P36969, U73C)
- Assay Details: Microscale thermophoresis (MST) binding
- Recorded Conditions: half maximal effective concentration, covalent mechanism
- Method: The bacterial expression vector pET-15b-His-tagged-c-GPX4^U46C was prepared as previously described (Yang et al. 2016). The C-terminal His-tagged GPX4U46C protein was expressed in E. coli and purified according to a protocol modified from Scheerer et al. 2007. […] The fractions containing 90-95% pure GPX4 protein, as evaluated by SDS-PAGE, were pooled and concentrated using the same Amicon centrifugal filter units as above to 5 mg/mL. Concentration was determined by Nanodrop. […]
Consider the cut-off 2 µM. If the recorded EC50 is strictly smaller, the label is true; if not, the label is false.

Example cases with answers are listed next.
CC(C)(COC(=O)CCl)NC(=O)c1cc2ccccc2[nH]1: false
COc1ccc2cc(C(=O)NC(C)(C)COC(=O)CCl)[nH]c2c1: true

QUERY: Here's an entry: CC(C)(COC(=O)CCl)NC(=O)c1cc2ccc(Br)cc2[nH]1 . Is its EC50 below 2 µM?
RESULT: true

QUERY: Here's an entry: CC(C)(COC(=O)CCl)NC(=O)c1cc2cc([N+](=O)[O-])ccc2[nH]1 . Is its EC50 below 2 µM?
RESULT: false

QUERY: Here's an entry: COc1cccc2[nH]c(C(=O)n3ccnc3)cc12 [LOC1886, reference compound] . Is its EC50 below 2 µM?
RESULT: false

----------
- Target Under Test: GPX4 (Homo sapiens)
- Assay Details: GPX4 activity assay in cell lysates (NADPH-coupled)
- Format: biochemical
- Design: endogenous in cells; host or cells: A-673 cell lysate
- Recorded Conditions: 20 μM; generation 2
We use 5% as the dividing line for GPX4% inhibition at 20 (μM): on or above the line is class 1, below is class 0.

Example cases with answers are listed next.
CC(C)(COC(=O)CCl)NC(=O)c1ncn2ccccc12: class 1
Cn1nc(C(=O)NC(C)(C)C=O)c2ccccc21: class 0
CC(C)(COC(=O)CCl)NC(=O)c1n[nH]c2cc(Br)ccc12: class 1
Cn1nc(C(=O)NC(C)(C)CC=O)c2ccccc21: class 0
Cc1onc(C(=O)N2CCN(C(=O)c3nn(C)c4ccccc34)CC2)c1[N+](=O)[O-]: class 0
Cn1nc(C(=O)N2CCN(C(=O)CCl)CC2)c2ccccc21: class 0
Cn1nc(C(=O)NC(C)(C)COC(=O)C(F)Cl)c2ccccc21 (stereo not shown): class 0
CC(C)(COC(=O)CCl)NC(=O)c1n[nH]c2ncccc12: class 0

QUERY: Tell me whether GPX4% inhibition at 20 (μM) is at least 5% here: Cn1nc(C(=O)NC(C)(C)COC(=O)CCl)c2ccccc21
RESULT: class 1

QUERY: Tell me whether GPX4% inhibition at 20 (μM) is at least 5% here: Cn1nc(C(=O)NC(C)(C)C(O)S(=O)(=O)[O-])c2ccccc21.[Na+] (stereo not shown)
RESULT: class 1

----------
Exercise: for every item that follows, state its recorded GPX4% inhibition at 2.5 μM.
- Target Under Test: GPX4 (Homo sapiens)
- Assay Details: GPX4 activity assay in cell lysates (NADPH-coupled)
- Format: biochemical
- Set-up: endogenous in cells; host or cells: A-673 cell lysate
- Recorded Conditions: 2.5 μM
Give bare numbers, in %.

// known answers, use as guide
Cn1nc(C(=O)NC(C)(C)COC(=O)CCl)c2ccc(-c3ccc(OC(C)(C)C)cc3)cc21: 95.3
Cn1nc(C(=O)NC(C)(C)COC(=O)CCl)c2ccc(-c3cccc(C=O)c3)cc21: 51.0
Cn1nc(C(=O)NC(C)(C)CNC(=O)CCl)c2ccc(-c3ccc(N4CCOCC4)c(Cl)c3)cc21: 14.9
CC(C)Oc1ncc(-c2ccc3c(-n4cc(C(C)(C)COC(=O)CCl)nn4)nn(C)c3c2)cn1: 14.6
COc1ccc(-c2ccc3c(C(=O)NC(C)(C)COC(=O)CCl)nn(C)c3c2)cc1Cl: 79.1

Provide GPX4% inhibition at 2.5 μM for all items below, preserving their order.
1. COc1ccc(-c2ccc3c(C(=O)NC(C)(C)CNC(=O)CCl)nn(C)c3c2)cc1Cl
2. COc1ccc(-c2ccc3c(-n4cc(C(C)(C)COC(=O)CCl)nn4)nn(C)c3c2)c(Cl)c1Cl

RESULT:
1. 33.6
2. 68.7

----------
- Target Under Test: GPX4 (Homo sapiens, UniProt P36969)
- Sequence (P36969 1-170 isoform P36969-2): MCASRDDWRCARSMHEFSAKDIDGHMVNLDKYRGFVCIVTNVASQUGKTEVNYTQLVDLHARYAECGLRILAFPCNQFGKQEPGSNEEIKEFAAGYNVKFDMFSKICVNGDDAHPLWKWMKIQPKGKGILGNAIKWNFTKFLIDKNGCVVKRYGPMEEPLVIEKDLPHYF
- Assay Details: GPX4 activity assay in cell lysates (NADPH-coupled)
- Type: biochemical
- Design: endogenous in cells; host or cells: A-673 cell lysate
- Recorded Conditions: concentration not given
Observable: GPX4 inhibition rate

// known answers, use as guide
COc1ccc(-c2ccc3c(C(=O)NC(C)(C)COC(=O)CCl)nn(C)c3c2)cc1Cl [QW-446]: 90%
Cn1nc(C(=O)NC(C)(C)COC(=O)CCl)c2ccc(-c3cccc([N+](=O)[O-])c3)cc21 [QW-452]: 50%
Cn1nc(C(=O)NC(C)(C)COC(=O)CCl)c2ccc(-c3ccc4c(c3)OCO4)cc21 [QW-594]: 75%

Here is another molecule to look at.
QUERY: Look up GPX4 inhibition rate of CN(C)c1ccc(-c2ccc3c(C(=O)NC(C)(C)COC(=O)CCl)nn(C)c3c2)cc1 [QW-568] and report it.
RESULT: 50%

----------
Exercise: for every item that follows, state its recorded Plasma Stability t1/2 (min) human.
Answers are plain numbers, in min.

// known answers, use as guide
Cn1nc(C(=O)NC(C)(C)COC(=O)CCl)c2ccc(-c3ccc(Oc4ccccc4)c(Cl)c3)cc21 [QW-561]: 116
Cn1nc(C(=O)NC(C)(C)COC(=O)CCl)c2ccc(-c3ccc4c(c3)OCO4)cc21 [QW-594]: 6.6

Here is another molecule to look at.
QUERY: Look up Plasma Stability t1/2 (min) human of CC(C)Oc1ccc(-c2ccc3c(C(=O)NC(C)(C)COC(=O)CCl)nn(C)c3c2)cc1Cl [QW-550] and report it.
RESULT: 73.2

----------
Exercise: for every item that follows, state its recorded Plasma Stability t1/2 (min) mouse.
One number for each entry, in min.

// known answers, use as guide
Cn1nc(C(=O)NC(C)(C)COC(=O)CCl)c2ccc(-c3csc4ccccc34)cc21: 6.3
COC(=O)c1ccc([C@@H]2c3[nH]c4ccccc4c3C[C@@H](C(=O)OC)N2C(=O)CCl)cc1 [RSL3, reference compound]: 5.2
Cn1nc(C(=O)NC(C)(C)COC(=O)CCl)c2ccc(-c3ccc(Oc4ccccc4)c(Cl)c3)cc21: 23.9

Provide Plasma Stability t1/2 (min) mouse for all items below, preserving their order.
1. COc1c(Cl)cc(-c2ccc3c(C(=O)NC(C)(C)C(C)OC(=O)CCl)nn(C)c3c2)cc1Cl (racemic)
2. COc1ccc(-c2ccc3c(C(=O)NC(COC(=O)CCl)C(F)(F)F)nn(C)c3c2)cc1Cl (centres unmarked)

RESULT:
1: 25.4; 2: 23.8

----------
- Tested on: Huh7 cells
- Assay Details: Cellular dose response assay, Huh7
- Assay type: cell-based, human
- Recorded Conditions: compounds alone; Table 4; read-out: IC50 (uM) Huh7^a
- Protocol: HT-1080 (human [Homo sapiens] […] fibrosarcoma), A-673 (human [Homo sapiens] […] Ewing's sarcoma), and SK-HEP-1 (human [Homo sapiens] […] hepatic adenocarcinoma), cells were obtained from ATCC. […] HT-1080, HepG2, Huh7, HLF, and SK-HEP-1 cells were seeded into opaque white 384-well plates at 1500 cells per well then incubated at 37° C. with 5% CO2 overnight. […] Cell viability was evaluated using CellTiter-Glo (Promega G7573) and luminescence was recorded on a Victor 5 plate reader. […]
Observable: IC50 (µM)
Answers are plain numbers, in µM.

COc1ccc2cc(C(=O)NC(C)(C)COC(=O)CCl)[nH]c2c1: 59.6

Provide IC50 for all items below, preserving their order.
1. COC(=O)c1ccc([C@@H]2c3[nH]c4ccccc4c3C[C@@H](C(=O)OC)N2C(=O)CCl)cc1 [RSL3, reference compound]
2. CC(C)(COC(=O)CCl)NC(=O)c1cc2cc([N+](=O)[O-])ccc2[nH]1
3. CC(C)(COC(=O)CCl)NC(=O)c1cc2ccc(Br)cc2[nH]1
4. CC(C)(COC(=O)CCl)NC(=O)c1cc2ccccc2[nH]1

RESULT:
[0.6, 15.8, 17.8, 98.7]
